The measured values listed here are drawn from BindingDB's records for doi:10.1021/jm980131z.

Molecular target: Human cytomegalovirus protease (Human herpesvirus 5)
Assay: Inhibitory activity against human cytomegalovirus (HCMV) protease
parameter: IC50 (µM)
Only the number, expressed in µM, is required.

Solved entries:
1) CCC[C@@H](NC(=O)N1C(=O)C[C@@H]1Cc1ccccc1)c1ccccc1 ... 3.4
2) COc1ccc(NC(=O)N2C(=O)C[C@@H]2Cc2ccccc2)cc1 ... 3.9
3) CS[C@@H]1C(=O)N(C(=O)NCc2ccncc2)[C@H]1Cc1ccccc1 ... 6.9
4) O=C1C[C@H](Cc2ccccc2)N1C(=O)NCc1ccccc1 ... 10
5) CN(Cc1ccc(C#N)cc1)C(=O)N1C(=O)C[C@@H]1Cc1ccccc1 ... 6
6) CN(Cc1ccc(S(=O)(=O)C(F)(F)F)cc1)C(=O)N1C(=O)C[C@@H]1Cc1ccccc1 ... 4.3

Looking for the measured IC50 of C[C@@H](NC(=O)N1C(=O)C[C@@H]1Cc1ccccc1)c1ccccc1 , can you help? 4

Looking for the measured IC50 of Cc1ccc(NC(=O)N2C(=O)C[C@@H]2Cc2ccccc2)cc1 , can you help? 5.2

Looking for the measured IC50 of C[C@H](NC(=O)N1C(=O)C[C@@H]1Cc1ccccc1)c1ccccc1 , can you help? 42

Looking for the measured IC50 of O=C1C[C@H](Cc2ccccc2)N1C(=O)Nc1ccc(F)cc1 , can you help? 3.7

Looking for the measured IC50 of CN(Cc1cccc([N+](=O)[O-])c1)C(=O)N1C(=O)C[C@@H]1Cc1ccccc1 , can you help? 6.9

Looking for the measured IC50 of O=C1C[C@H](Cc2ccccc2)N1C(=O)NC1CCCCC1 , can you help? 8.4

Looking for the measured IC50 of O=C1C[C@H](Cc2ccccc2)N1C(=O)NCc1ccncc1 , can you help? 12

Looking for the measured IC50 of CC(=O)Nc1ccc(CN(C)C(=O)N2C(=O)C[C@@H]2Cc2ccccc2)cc1 , can you help? 17

Looking for the measured IC50 of CN(Cc1ccc(SC(F)(F)F)cc1)C(=O)N1C(=O)C[C@@H]1Cc1ccccc1 , can you help? 6.9

Looking for the measured IC50 of CN(Cc1ccccc1[N+](=O)[O-])C(=O)N1C(=O)C[C@@H]1Cc1ccccc1 , can you help? 11

Looking for the measured IC50 of O=C1C[C@H](Cc2ccccc2)N1C(=O)NCc1ccccn1 , can you help? 33

Looking for the measured IC50 of O=C1C[C@H](Cc2ccccc2)N1C(=O)NCc1cccnc1 , can you help? 10
